tested on: G-protein; assay: functional [35S]GTPγS binding, rat brain membrane homogenates; type: biochemical; conditions: dose-response curves, basal = 100%
Where a SMILES comes first, the peptide text is derived from it. [ ]: non-standard residue; d: D form. Kyn = Nc1ccccc1C(=O)C[C@H](N)C(=O)O
readout type: Maximal Stimulation (Efficacy) Emax ± S.E.M. (%)
Please reply with the bare figure in % and do not write the unit itself.

These solved cases illustrate the format of a correct answer.
COC(=O)[C@H](CC(=O)c1ccccc1N)NC(=O)[C@H](Cc1ccccc1)NC(=O)CNC(=O)[C@@H](C)NC(=O)[C@@H](N)Cc1ccc(O)cc1 [Peptide K4] (H-Y[dA]GF[Kyn]-OMe) : 155.5
NC(=O)[C@H](Cc1ccccc1)NC(=O)[C@H](CC(=O)c1ccccc1N)NC(=O)[C@@H]1CCCN1C(=O)[C@@H](N)Cc1ccc(O)cc1 [Peptide K2] : 121.6
NC(=O)[C@H](CC(=O)c1ccccc1N)NC(=O)[C@H](Cc1ccccc1)NC(=O)[C@@H]1CCCN1C(=O)[C@@H](N)Cc1ccc(O)cc1 [Peptide K3] (H-YPF[Kyn]-NH2) : 114.0

// switching to the query molecule
Input line: Any idea what its Maximal Stimulation (Efficacy) Emax ± S.E.M. is? The molecule is C[C@@H](NC(=O)[C@@H](N)Cc1ccc(O)cc1)C(=O)NCC(=O)N[C@@H](Cc1ccccc1)C(=O)N[C@@H](CC(=O)c1ccccc1N)C(N)=O [Peptide K6] (H-Y[dA]GF[Kyn]-NH2)
Output line: 209.7

* * *

Here's what we have: Ki numbers for κ-opioid receptor (Cavia porcellus).
Where a SMILES comes first, the peptide text is derived from it. [ ]: non-standard residue; d: D form. Kyn = Nc1ccccc1C(=O)C[C@H](N)C(=O)O

// solved cases for Ki follow
NC(=O)[C@H](CC(=O)c1ccccc1N)NC(=O)[C@H](Cc1ccccc1)NC(=O)[C@@H]1CCCN1C(=O)[C@@H](N)Cc1ccc(O)cc1 [Peptide K3] (H-YPF[Kyn]-NH2) : > 10 µM
C[C@@H](NC(=O)[C@@H](N)Cc1ccc(O)cc1)C(=O)NCC(=O)N[C@@H](Cc1ccccc1)C(=O)N[C@@H](CC(=O)c1ccccc1N)C(=O)O [Peptide K5] (H-Y[dA]GF[Kyn]-OH) : > 10 µM
COC(=O)[C@H](CC(=O)c1ccccc1N)NC(=O)[C@H](Cc1ccccc1)NC(=O)CNC(=O)[C@@H](C)NC(=O)[C@@H](N)Cc1ccc(O)cc1 [Peptide K4] (H-Y[dA]GF[Kyn]-OMe) : > 10 µM

In the following, a different molecule is considered.
Input line: Which Ki is reported with κ-opioid receptor (Cavia porcellus) for this entry: NC(=O)[C@H](Cc1ccccc1)NC(=O)[C@H](CC(=O)c1ccccc1N)NC(=O)[C@@H]1CCCN1C(=O)[C@@H](N)Cc1ccc(O)cc1 [Peptide K2] ?
Output line: 1.04 µM

* * *

biological target: NMDA receptor; assay: [3H]MK-801 competition binding, rat brain membrane; conditions: read-out: Ki + S.E.M., displacement of [3H]MK-801; NMDA system; rat brain membrane; from IC50 by Cheng–Prusoff
readout type: Ki

Nc1ccccc1C(=O)C[C@H](N)C(=O)O [L-kyn, L-kynurenine, reference compound] : > 10 µM

Okay, now this compound:
Input line: May I ask what Ki has been recorded for O=C(O)c1cc(=O)c2ccccc2[nH]1 ?
Output line: > 10 µM

* * *

Listed here are compounds together with their documented Potency Log EC50 ± S.E.M..
target: G-protein; assay: functional [35S]GTPγS binding, rat brain membrane homogenates; type: biochemical; details: dose-response curves
Where a SMILES comes first, the peptide text is derived from it. [ ]: non-standard residue; d: D form. Kyn = Nc1ccccc1C(=O)C[C@H](N)C(=O)O
Write no unit; give the number alone.

For orientation, consider the following solved cases.
NC(=O)[C@H](CC(=O)c1ccccc1N)NC(=O)[C@H](Cc1ccccc1)NC(=O)[C@@H]1CCCN1C(=O)[C@@H](N)Cc1ccc(O)cc1 [Peptide K3] (H-YPF[Kyn]-NH2) : −6.993
C[C@@H](NC(=O)[C@@H](N)Cc1ccc(O)cc1)C(=O)NCC(=O)N[C@@H](Cc1ccccc1)C(=O)N[C@@H](CC(=O)c1ccccc1N)C(N)=O [Peptide K6] (H-Y[dA]GF[Kyn]-NH2) : −5.984
COC(=O)[C@H](CC(=O)c1ccccc1N)NC(=O)[C@H](Cc1ccccc1)NC(=O)CNC(=O)[C@@H](C)NC(=O)[C@@H](N)Cc1ccc(O)cc1 [Peptide K4] (H-Y[dA]GF[Kyn]-OMe) : −6.073

Input line: So what's the measured Potency Log EC50 ± S.E.M. for this one? NC(=O)[C@H](Cc1ccccc1)NC(=O)[C@H](CC(=O)c1ccccc1N)NC(=O)[C@@H]1CCCN1C(=O)[C@@H](N)Cc1ccc(O)cc1 [Peptide K2]
Output line: −7.535

* * *

assay: stability in human plasma; type: in vitro ADME; conditions: fresh human plasma, 37 °C, 60 minutes, read-out: K6% of degradation
Where a SMILES comes first, the peptide text is derived from it. [ ]: non-standard residue; d: D form. Kyn = Nc1ccccc1C(=O)C[C@H](N)C(=O)O
readout type: metabolised at 1 h, 200 μg/mL

Input line: I'd like to know its metabolised at 1 h, 200 μg/mL. The compound in question is C[C@@H](NC(=O)[C@@H](N)Cc1ccc(O)cc1)C(=O)NCC(=O)N[C@@H](Cc1ccccc1)C(=O)N[C@@H](CC(=O)c1ccccc1N)C(N)=O [Peptide K6] (H-Y[dA]GF[Kyn]-NH2)
Output line: 56%

Source listed as paper PMC7072329.
